- Tested on: SN12C renal
- Experiment: NCI-60 one-dose screen, 48 h (100 = growth as untreated, 0 = no growth, -100 = all killed)
- Condition Label: 10 µM unless noted
The panel holds about 83,000 compounds, 20% with a hit somewhere; the sample as a whole holds those more often.
// label = label 1 if growth is not less than 80%, otherwise label 0

>  <Compound>
COc1cc2c(cc1OCCCCC(=O)Nc1ccc(-c3nc4ccccc4s3)cc1)N=C[C@@H]1CCCN1C2=O

>  <Assigned Class>
label 0

$$$$

Exercise: Assess whether reported growth for `CCCN1C(=O)CSC1=Nc1ccc2cc3ccc(N=C4SCC(=O)N4CCC)cc3nc2c1` sits at 80% or higher.
Key: label 0

Exercise: Assess whether reported growth for CCOC(=O)C1CSC(C)(C(=O)OCC)N1 (configuration not stated) sits at 80% or higher.
Key: label 1

Exercise: Assess whether reported growth for `O=C(NCCNc1nccc(-c2c(-c3cccc(O)c3)nc3sccn23)n1)Nc1cc(C(F)(F)F)cc(C(F)(F)F)c1` sits at 80% or higher.
Key: label 1

Exercise: Assess whether reported growth for CN1C(=O)C2(NN=C(c3cccc4ccccc34)S2)c2ccccc21 (configuration not stated) sits at 80% or higher.
Key: label 0

Exercise: Assess whether reported growth for `CCc1ccc(C2=C/C(=C/c3ccc(Cl)cc3)C(=O)N2CCc2ccc(S(N)(=O)=O)cc2)cc1` sits at 80% or higher.
Key: label 0

Exercise: Assess whether reported growth for `NN=C(c1ccc(Cl)cc1)c1ccc(Cl)cc1` sits at 80% or higher.
Key: label 1

Exercise: Assess whether reported growth for `Oc1ccc(Cl)cc1Sc1cc(Cl)ccc1O` sits at 80% or higher.
Key: label 1

Exercise: Assess whether reported growth for `COC(=O)c1ccc(NC(N)=NCC(C)(C)COc2ccc(C(F)(F)F)cc2)nc1` sits at 80% or higher.
Key: label 0

Exercise: Assess whether reported growth for `Nc1ncc(-c2ccc3ncnc(Nc4ccc(F)c(Cl)c4)c3c2)cn1` sits at 80% or higher.
Key: label 0

Exercise: Assess whether reported growth for COC1OCC(OS(=O)(=O)c2ccc(C)cc2)C(OC(=O)c2ccccc2)C1OC(=O)c1ccccc1 (configuration not stated) sits at 80% or higher.
Key: label 0

Exercise: Assess whether reported growth for COc1ccc2c(c1)OC(N)=C(C#N)C2c1ccc(F)c(F)c1 (configuration not stated) sits at 80% or higher.
Key: label 0

Exercise: Assess whether reported growth for `CCOC(=O)n1cnc2c(Cl)ncnc21` sits at 80% or higher.
Key: label 1

Exercise: Assess whether reported growth for COc1ccc(C2=NN(C(=O)COc3ccc(Cl)cc3)C(O)(c3cc(F)c(Cl)cc3Cl)C2)cc1 (configuration not stated) sits at 80% or higher.
Key: label 1

Exercise: Assess whether reported growth for `COc1ccc2c(c1)/C(=C/c1c(-c3cc(OC)c(OC)c(OC)c3Br)nc3sccn13)C(=O)N2` sits at 80% or higher.
Key: label 1

Exercise: Assess whether reported growth for `COc1ccc(-c2c(NC(=O)Nc3ccc(Cl)c(C(F)(F)F)c3)cnn2-c2ccc(S(N)(=O)=O)cc2)cc1` sits at 80% or higher.
Key: label 0

Exercise: Assess whether reported growth for `COc1ccc(C(=O)NC(=O)Nc2ccc3c(c2)NC(=O)/C3=C\c2[nH]c(C)c(C(=O)O)c2C)cc1` sits at 80% or higher.
Key: label 0

Exercise: Assess whether reported growth for `COc1cc2ncnc(Oc3ccc(NC(=O)Nc4ccc(CN5CCOCC5)c(C(F)(F)F)c4)c4ccccc34)c2cc1OC` sits at 80% or higher.
Key: label 0
